target-entity: human P2X3 receptor (Homo sapiens (Human))
Sequence (P56373 whole entry): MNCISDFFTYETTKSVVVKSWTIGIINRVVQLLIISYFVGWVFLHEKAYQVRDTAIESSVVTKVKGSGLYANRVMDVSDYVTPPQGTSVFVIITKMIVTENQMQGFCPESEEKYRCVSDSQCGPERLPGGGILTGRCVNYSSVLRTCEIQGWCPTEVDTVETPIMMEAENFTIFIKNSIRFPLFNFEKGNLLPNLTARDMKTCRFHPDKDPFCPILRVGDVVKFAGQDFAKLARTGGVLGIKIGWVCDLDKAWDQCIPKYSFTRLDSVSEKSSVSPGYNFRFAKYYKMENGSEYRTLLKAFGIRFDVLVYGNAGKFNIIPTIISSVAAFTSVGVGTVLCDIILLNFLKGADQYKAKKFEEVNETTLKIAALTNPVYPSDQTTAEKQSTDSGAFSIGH
method: Evaluation of human P2X3 receptor inhibitory activity (Test Example 1)
reported-conditions: C6BU-1 cell transfected with human P2X3 receptor gene, FLIPR 384
property-measured: pIC50
// field semantics: pIC50 = negative decimal log of concentration (mol/L)

Past entries and their recorded results:
Cc1cncc(Oc2ccc(/N=c3\[nH]c(=O)n(C[C@H](C)C(=O)O)c(=O)n3Cc3ccc(Cl)cc3)cc2)c1 | 7.92
COC(=O)[C@@H](C)Cn1c(=O)[nH]/c(=N\c2ccc(Oc3cccc(F)n3)cc2)n(CC2CCC3(CC2)CC3)c1=O | 7.80

Proceed to the following item.
Input: Recorded pIC50 of `CCOC(=O)[C@H]1C[C@H](n2c(=O)[nH]/c(=N\c3ccc(Oc4ccccn4)cc3)n(Cc3ccc(C)cc3)c2=O)C1` , please.
Output: 8.30

Where do these numbers come from? They come from patent US10065941B2.
